# Experimental target: T1, VEGF165 (human, UniProt P15692-4 27-191)
# T1 construct: Treated as one molecule; also called VEGF-A165; human VEGF-A165
# T1 sequence (P15692 other isoform, or with tags, fused parts or gaps limits assumed): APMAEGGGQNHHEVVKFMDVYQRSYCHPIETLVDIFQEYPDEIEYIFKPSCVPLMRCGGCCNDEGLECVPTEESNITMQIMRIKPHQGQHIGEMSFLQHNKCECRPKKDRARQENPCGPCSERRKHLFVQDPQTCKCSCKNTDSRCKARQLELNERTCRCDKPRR
# Test protocol: binding competition ELISA (VEGF165 Quantikine): free VEGF165 captured by the plate antibody
Readout label: IC50 (ng/mL)
Dear colleague, please return just the value in ng/mL, with no unit written.

(Q) Requested read-out: IC50. Entry: mvsFlt 300 kDa LCR (multivalent sFlt-hyaluronic acid conjugate, low conjugation ratio) (other, UniProt P17948 27-328, looked up, thiolated with 2-iminothiolane and linked through EMCH maleimide to 300 kDa hyaluronic acid, domain: first 3 Ig-like extracellular domains; Protein-polymer conjugate; 10:1 sFlt:HyA feed ratio; final sFlt:HyA 7.9 by SEC-MALS; not shown: tag implied by Ni-NTA purification, not described) SKLKDPELSLKGTQHIMQAGQTLHLQCRGEAAHKWSLPEMVSKESERLSITKSACGRNGKQFCSTLTLNTAQANHTGFYSCKYLAVPTSKKKETESAIYIFISDTGRPFVEMYSEIPEIIHMTEGRELVIPCRVTSPNITVTLKKFPLDTLIPDGKRIIWDSRKGFIISNATYKEIGLLTCEATVNGHLYKTNYLTHRQTNTIIDVQISTPRPVKLLRGHTLVLNCTATTPLNTRVQMTWSYPDEKNKRASVRRRIDQSNSHANIFYSVLTIDKMQNKDKGLYTCRVRSGPSFKSVNTSVHI
(A) 4.5

Reference for the values: patent US20240148882A1
